Assay: Inhibition of gamma-secretase-mediated cleavage of human APP Swedish and London mutation expressed in HEK293 cells assessed as reduction in amyloid beta40 production after 4 hrs by ECL technology
Format: cell-based
The following compounds are listed with their measured pIC50 values.
Note on units: pIC50 is unitless, being -log10 of a concentration expressed in mol/L.

Known pIC50 results, listed for orientation:
Q) Name the recorded pIC50 for O=S(=O)(NC[C@@H]1CCC[C@@]2(S(=O)(=O)c3ccc(Cl)cc3)c3c(F)ccc(F)c3OC[C@@H]12)c1c(F)cccc1F .
A) 7.49

Q) Request: CCCCS(=O)(=O)NC[C@@H]1CCC[C@@]2(S(=O)(=O)c3ccc(Cl)cc3)c3c(F)ccc(F)c3OC[C@@H]12
A) 7.54

Q) Same for CCN(C[C@@H]1CCC[C@@]2(S(=O)(=O)c3ccc(C(F)(F)F)cc3)c3c(F)ccc(F)c3OC[C@@H]12)S(=O)(=O)C1CC1
A) 7.33

Q) Query O=S(=O)(NC[C@@H]1CCC[C@@]2(S(=O)(=O)c3ccc(Cl)cc3)c3c(F)ccc(F)c3OC[C@@H]12)c1cccs1 next
A) 7.35

Q) Ok, now CS(=O)(=O)N(C[C@@H]1CCC[C@@]2(S(=O)(=O)c3ccc(C(F)(F)F)cc3)c3c(F)ccc(F)c3OC[C@@H]12)C1CC1
A) 8.05

New cases:
Q) Look up pIC50 for this compound: CS(=O)(=O)NC[C@@H]1CCC[C@@]2(S(=O)(=O)c3ccc(C(F)(F)F)cc3)c3c(F)ccc(F)c3OC[C@@H]12
A) 7.92

Q) Another compound to check: CCCS(=O)(=O)NC[C@@H]1CCC[C@@]2(S(=O)(=O)c3ccc(Cl)cc3)c3c(F)ccc(F)c3OC[C@@H]12
A) 7.92

###

Assay: Inhibition of gamma-secretase-mediated cleavage of human APP Swedish and London mutation expressed in HEK293 cell membrane
Format: cell-based
property.measured: IC50 (nM)
State the answer as a number, implicitly in nM.

In the examples that follow, each entry is paired with its recorded IC50.
Q) Find the recorded IC50 belonging to O=S(=O)(NC[C@@H]1CCC[C@@]2(S(=O)(=O)c3ccc(C(F)(F)F)cc3)c3c(F)ccc(F)c3OC[C@@H]12)C(F)(F)F and report it.
A) 41.7

Q) Param item: CN1CCN(C[C@@H]2CCC[C@@]3(S(=O)(=O)c4ccc(C(F)(F)F)cc4)c4c(F)ccc(F)c4OC[C@@H]23)S1(=O)=O
A) 68

Q) CCS(=O)(=O)NC[C@@H]1CCC[C@@]2(S(=O)(=O)c3ccc(Cl)cc3)c3c(F)ccc(F)c3OC[C@@H]12 , same question.
A) 1.6

Now turn to the next compound.
Q) # IC50 lookup, item O=S(=O)(NC[C@@H]1CCC[C@@]2(S(=O)(=O)c3ccc(Cl)cc3)c3c(F)ccc(F)c3OC[C@@H]12)N1CCCCC1
A) 6

###

Assay: Inhibition of gamma-secretase-mediated cleavage of human APP Swedish and London mutation expressed in HEK293 cell membrane
Assay type: cell-based
property.measured: IC50 (nM)
Numeric answer only, unit nM assumed.

Look over these answered cases.
Q) Bench note: what IC50 did CS(=O)(=O)NC[C@@H]1CCC[C@@]2(S(=O)(=O)c3ccc(C(F)(F)F)cc3)c3c(F)ccc(F)c3OC[C@@H]12 show?
A) 13

Q) // same read-out, input: CCN(C[C@@H]1CCC[C@@]2(S(=O)(=O)c3ccc(Cl)cc3)c3c(F)ccc(F)c3OC[C@@H]12)S(=O)(=O)CC
A) 16

Q) Can you check O=S(=O)(NC[C@@H]1CCC[C@@]2(S(=O)(=O)c3ccc(Cl)cc3)c3c(F)ccc(F)c3OC[C@@H]12)c1cccs1 next?
A) 16.7

Further cases:
Q) So what's the measured IC50 for this one? CCN(CC)S(=O)(=O)NC[C@@H]1CCC[C@@]2(S(=O)(=O)c3ccc(Cl)cc3)c3c(F)ccc(F)c3OC[C@@H]12
A) 9
